Ref: PubChem BioAssay (Tox21)

- methodNotes: qHTS assay to identify small molecule agonists of the farnesoid-X-receptor (FXR) signaling pathway - cell viability counter screen (AID 743218); note: nearly all actives have a fitted effect of over 45% in size
- conditions: FXR-bla HEK293T viability, CellTiter-Glo luminescence, 16 h; series mostly up to 62.6 µM
Records with an inconclusive call do not appear. Activity calls are given as the source filed them. Calls come from the whole dose curve; as a rule, active = well fitted cell-killing curve with a large enough effect in the repeat runs; inconclusive = weak or mixed curves, or effect the other way; inactive = no such curve, though single readings can be large or run the other way.
Pick one and only one: y for active, n for inactive

CC1(c2ccc(Oc3ccccc3)cc2)OC(=O)N(Nc2ccccc2)C1=O (stereo not given) = y
Clc1ccc(C(c2ccc(Cl)cc2)C(Cl)(Cl)Cl)cc1 = n
Cc1ccc(OP(=O)(Oc2ccccc2)Oc2ccccc2)cc1 = n
CN(C)c1ccc(N=Nc2ccccc2)cc1 = n
CCCCN(CCCC)C(=S)[S-].CCCCN(CCCC)C(=S)[S-].[Zn+2] = y
CCCOCC(=Nc1ccc(Cl)cc1C(F)(F)F)n1ccnc1 = y

Now examine the next entry.
Problem: So what was the verdict on CC(=O)O[C@H]1CC[C@@]2(C)C(=CC[C@@H]3[C@@H]2CC[C@]2(C)C(=O)CC[C@@H]32)C1 in this test?
Result: n

---

- methodNotes: qHTS assay for identifying genotoxic compounds that show differential cytotoxicity against isogenic chicken DT40 cell lines with known DNA damage response pathways - wild type cell line (AID 743012); note: nearly all actives have a fitted effect of over 60% in size
- conditions: DT40 wild type chicken cells viability, CellTiter-Glo, 40 h; series mostly up to 68.4 µM
Inconclusive results are not listed. Active and inactive are the calls of the source. The call rests on the fitted dose curve; in most records, active means well fitted cell-killing curve with a large enough effect in the repeat runs; inconclusive means weak or mixed curves, or effect the other way; inactive means no such curve, though single readings can be large or run the other way.
Pick one and only one: active, inactive

CC(=O)C(Cl)(Cl)Cl = active
O=[N+]([O-])O.O=[N+]([O-])O.[Cd] = active
CCCCCCCCCCCCCN1CC(C)OC(C)C1 (configuration not stated) = active

Problem: So what was the verdict on CC(C)(C)OO in this test?
Result: inactive

Problem: So what was the verdict on CC(C)[C@H](C(=O)OC(C#N)c1cccc(Oc2ccccc2)c1)c1ccc(OC(F)F)cc1 (some centres not stated) in this test?
Result: active

Problem: So what was the verdict on COc1cccc(C(=O)CCN[C@@H](C)[C@H](O)c2ccccc2)c1 in this test?
Result: active

Problem: So what was the verdict on CC1(C)[C@H](C(=O)O[C@H](C#N)c2cccc(Oc3ccccc3)c2)[C@@H]1/C=C(\Cl)C(F)(F)F in this test?
Result: active

---

- methodNotes: qHTS assay to identify small molecule agonists of the AP-1 signaling pathway - cell viability counter screen (AID 1159525); note: nearly all actives have a fitted effect of over 55% in size; note: potency is the fitted concentration of half-maximal effect
- conditions: ME-180 (cervical carcinoma) AP-1-bla cells viability, ATP luminescence, 5 h; series mostly up to 76.8 µM
Results filed as inconclusive are left out. The source made the active and inactive calls. Calls follow the shape of the full dose curve.
assayMetric: Potency

Some entries whose results are on file:
Cc1ccc(CCl)cc1 = inactive
CCCCCCCCCCCCCCC(Br)C(=O)O (centres undefined) = inactive
COP(=O)(OC)SCn1c(=O)oc2cc(Cl)cnc21 = inactive
CCOCCOC(C)=O = inactive
CN(C)S(=O)(=O)N(SC(F)(Cl)Cl)c1ccccc1 = 34.7 µM (active)
CC(C)OS(C)(=O)=O = inactive

// field: Potency; key: CN(C)c1ccc(N=Nc2ccccc2)cc1 ; value = inactive

// field: Potency; key: CC1(C)CC/C(=C/c2ccc(Cl)cc2)C1(O)Cn1cncn1 (centres undefined) ; value = inactive

// field: Potency; key: C=COCCCl ; value = inactive

// field: Potency; key: C[CH2][Hg][N]1C(=O)C2C(C1=O)C1(Cl)C(Cl)=C(Cl)C2(Cl)C1(Cl)Cl (centres undefined) ; value = 6.57 µM (active)

// field: Potency; key: Clc1ccc(C(c2ccccc2Cl)C(Cl)(Cl)Cl)cc1 (centres undefined) ; value = 36.1 µM (active)

// field: Potency; key: CC(=O)OC1(c2ccccc2)CCN(CCc2ccccc2)CC1 ; value = inactive

// field: Potency; key: N#Cc1ccccc1Cl ; value = inactive

// field: Potency; key: Nc1ccc(Sc2ccc(N)cc2)cc1 ; value = inactive
